Test system: PC-3 prostate
protocolNotes: NCI tumour cell line growth inhibition, 48 h
Recorded TGI, one value per entry.

>>> df
                                   molecule  measuredresult
0  COc1cc2c(/C=C3\C(=O)N(C)c4ccccc43)c[nH]c2cc1C        > 100 µM
1  CCOC(=O)c1ccc(N2NC(=O)/C(=C/c3ccc([N+](=O)[O-])o3)C2=O)cc1         55.8 µM
2      CCCCN(CCCC)P(=O)(Oc1ccccc1)Oc1ccccc1         17.6 µM
3  Clc1ccc(-c2cnc3c(-c4ccnc(N5CCNCC5)c4)cnn3c2)cc1         5.72 µM
4  CCn1nc(C2CCN(C(=O)CCO)CC2)nc1-c1cnc(N)c(-c2nnc(C(C)(C)C)o2)n1        > 100 µM
5  CCOC(=O)C1=C(C(=O)OCC)SC2(S1)C(C(=O)OCC)=C(C(=O)OCC)Sc1c2ssc1=O         2.96 µM
6                      Cc1n[nH]c(=O)n1C1CC1        > 100 µM
7  COc1ccc(C2(CC(C)C)CCNC2)cc1OC (stereo unspecified)        > 100 µM

QUERY: # query: TGI of entry COc1cc2c3c(n(CCCN=[N+]=[N-])c(=O)c2cc1OC)-c1ccc([N+](=O)[O-])cc1C3=O
RESULT: > 100 µM

QUERY: I'd like to know its TGI. The molecule in question is Cn1c(-c2ccccc2)cc(-c2ccc3c(c2)OCO3)c1-c1ccsc1
RESULT: > 100 µM

QUERY: For the molecule shown here, Nc1nc(Cl)c(N)c(NCC2(CO)CCC(OCc3ccccc3)C2)n1 (stereo unspecified) , give the reported TGI.
RESULT: > 100 µM

###

System: OVCAR-8 ovarian
protocolNotes: NCI tumour cell line growth inhibition, 48 h; in the data active = GI50 below about 0.43 µM; inactive = the rest
Pick one and only one: label 1 (active), label 0 (inactive)

                                   compound     testedsystem  classlabel
0  O=C(Nc1ccc(Cl)c(C(F)(F)F)c1)Nc1ccc(-c2cccnc2)cc1N1CCC(CO)CC1  OVCAR-8 ovarian     label 0
1  O=C1OC2(c3ccc(O)cc3Oc3cc(O)ccc32)c2cccc3cccc1c23  OVCAR-8 ovarian     label 0
2          COc1cccc(/C=N\NC(=O)c2ccncc2)c1O  OVCAR-8 ovarian     label 0
3  CCCN(CCC)c1ccc(/C=N/NC(=O)c2cccnc2)c(C)c1  OVCAR-8 ovarian     label 0
4  CC(=O)O[C@@H]1c2c(c3c(=O)c4cccc(O)c4c(=O)c=3c2=[N+]=[N-])[C@H](OC(C)=O)[C@@H](OC(C)=O)[C@]1(C)O  OVCAR-8 ovarian     label 1

Field: next compound
QUERY: Just curious, what result did CC[C@@]1(O)CC(OC2CC(N3CCOCC3)C(O)C(C)O2)c2c(O)c3c(c(O)c2[C@H]1O)C(=O)c1cccc(O)c1C3=O (some centres undefined) get here?
RESULT: label 1

###

Tested on: SF-295 CNS
protocolNotes: NCI tumour cell line growth inhibition, 48 h
Each item that follows carries a reported TGI.

Check out these entries, answers already filled in.
molecule	testedSystem	reportedEndpoint	measuredResult
Cn1cnc([N+](=O)[O-])c1S(=O)(=O)Oc1ccc(Cl)cc1	SF-295 CNS	TGI	> 100 µM
CC(C)N(C(=O)C12C3C4C5C3C1(C(=O)O)C5C42)C(C)C (stereo not given)	SF-295 CNS	TGI	> 100 µM
C/C(=C/CC[C@](C)(OC1OC(CO)C(O)C(O)C1O)[C@H]1CC[C@]2(C)[C@@H]1CC[C@@H]1[C@@]3(C)CC[C@H](O)C(C)(C)[C@@H]3C[C@H](O)[C@]12CO)CO (stereo not given in full)	SF-295 CNS	TGI	> 100 µM
O=C(O)c1cc2ccccc2c(N=Nc2ccc(S(=O)(=O)Nc3ccccn3)cc2)c1O	SF-295 CNS	TGI	> 100 µM
Cc1ccc(NC(=O)C2C3C=CC(O3)C2C(=O)O)cc1 (stereo not given)	SF-295 CNS	TGI	> 100 µM
C=CC12CCCCC1CC(C(=O)OC)=C(O)C2 (stereo not given)	SF-295 CNS	TGI	> 100 µM
COc1cc(/C=N/NC(=O)c2c(Cl)c(Cl)c(Cl)c(Cl)c2-c2nc3ccc(C(=O)c4ccccc4)cc3[nH]2)ccc1O	SF-295 CNS	TGI	> 100 µM
Cn1cc(NC(=O)Nc2cc(C(=O)Nc3cc(C(=O)Nc4ccc5cc(S(=O)(=O)O)cc(S(=O)(=O)O)c5c4)n(C)c3)n(C)c2)cc1C(=O)Nc1cc(C(=O)Nc2ccc3cc(S(=O)(=O)O)cc(S(=O)(=O)O)c3c2)n(C)c1	SF-295 CNS	TGI	> 100 µM

QUERY: Which TGI is listed for CC1OC(n2cc(F)c(=O)[nH]c2=O)CCC1=O (stereo not given) ?
RESULT: > 100 µM

QUERY: Fill in the blank: the reported TGI of COC(=O)C(Cc1nc2ccc(Cl)cc2[nH]c1=O)C(=O)C(=O)Nc1cc(C)ccc1C (stereo not given) is ____.
RESULT: > 100 µM

###

Test system: HCT-116 colon
protocolNotes: NCI tumour cell line growth inhibition, 48 h
reportedEndpoint: TGI (µM)
Express it in µM; write the number only.

QUERY: Which TGI value belongs to O=S(=O)(CC(Cl)c1ccccc1)c1nc2ccccc2s1 (configuration not stated) ?
RESULT: 23.6

QUERY: So what's the measured TGI for this one? CCOc1ccc(-c2nc3ccc(-c4nc5ccc(N6CCN(C)CC6)cc5[nH]4)cc3[nH]2)cc1
RESULT: 0.26

QUERY: Recorded TGI of Cn1cnc([N+](=O)[O-])c1S(=O)(=O)Oc1ccc(Cl)cc1 , please.
RESULT: 21.8

###

Tested on: UACC-62 melanoma
protocolNotes: NCI tumour cell line growth inhibition, 48 h
Recorded TGI, one value per entry.

Known TGI results, listed for orientation:
compound	TGI
Cn1cc(NC(=O)Nc2cc(C(=O)Nc3cc(C(=O)Nc4ccc5cc(S(=O)(=O)O)cc(S(=O)(=O)O)c5c4)n(C)c3)n(C)c2)cc1C(=O)Nc1cc(C(=O)Nc2ccc3cc(S(=O)(=O)O)cc(S(=O)(=O)O)c3c2)n(C)c1	> 100 µM
COCN1C(=O)[C@@H]2C[C@@H](O)CN2C(=O)c2ccccc21	> 100 µM
NCCCN(CCCCN(CCCN)Cc1ccccc1)Cc1ccccc1	> 100 µM
CCCCCN(CCCCC)CCC[C@@H](C)[C@H]1CC[C@H]2[C@@H]3[C@H](OCCCN)C[C@@H]4C[C@H](OCCCN)CC[C@]4(C)[C@H]3C[C@H](OCCCN)[C@]12C	6.41 µM
COc1cc2c(/C=C3\C(=O)N(C)c4ccccc43)c[nH]c2cc1C	> 100 µM
O=C1CCCc2ccc([N+](=O)[O-])c(O)c21	> 100 µM
NC(=O)N/N=C(\CC1OC(=O)c2ccccc21)c1ccc([N+](=O)[O-])cc1 (stereo not drawn)	34.8 µM

Could you now look at the following compound, please?
QUERY: Which TGI value belongs to CC(C)N(C(=O)C12C3C4C5C3C1(C(=O)O)C5C42)C(C)C (stereo not drawn) ?
RESULT: > 100 µM

###

Assay read-out GI50; system under study: MDA-MB-435.

Check out these entries, answers already filled in.
molecule	testedSystem	GI50
OCC1OC(N2C=C(c3nc4ccccc4s3)C3C=CC=CC32)C(O)C(O)C1O (centres undefined)	MDA-MB-435	11.8 µM
COc1cc(OC)c(C(=O)/C=C/c2ccc(C#N)cc2)c(OC)c1	MDA-MB-435	1.32 µM
COc1cc(CSc2nc3ccc(Cl)cc3c(=O)n2Cc2ccccc2)cc(OC)c1OC	MDA-MB-435	0.406 µM
O=C1OC2(c3ccc(O)cc3Oc3cc(O)ccc32)c2cccc3cccc1c23	MDA-MB-435	19.1 µM
CCCCN(CCCC)P(=O)(Oc1ccccc1)Oc1ccccc1	MDA-MB-435	6.2 µM

Next:
QUERY: Lab note: need GI50 for COc1cccc2c1C(=O)c1c(O)c3c(c(O)c1C2=O)C[C@](O)(C(=O)CO)C[C@H]3O[C@@H]1C[C@@H](NC(=O)CCCN(C)C2(c3ccc(F)cc3)CC3CCC2C3)[C@H](O)[C@@H](C)O1 (some centres undefined) on MDA-MB-435, anyone have it?
RESULT: 0.836 µM

###

Tested on: SNB-75 CNS
protocolNotes: NCI tumour cell line growth inhibition, 48 h
TGI for assorted compounds
All answers are understood in µM, so give the number only.

structureAsSmiles	testedSystem	TGI, µM
NCCCN(CCCCN(CCCN)Cc1ccccc1)Cc1ccccc1	SNB-75 CNS	37.6

Now let's try a different one.
QUERY: So what does the record say about TGI for Oc1ccc(Br)cc1C=Nc1c(NC2CCCCC2)oc2ccc(Br)cc12 ?
RESULT: 79.5
